B1: glmS ribozyme (parent)
chain: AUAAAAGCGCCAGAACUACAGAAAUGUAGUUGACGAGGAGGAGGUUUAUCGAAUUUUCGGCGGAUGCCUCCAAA

variants of: B1; test: KM; higher = weaker cofactor use; RNA array; conditions: with glucosamine-6-phosphate
Kindly state log10(KM) for each of the entries shown.
log10 KM, µM

Below, each entry is followed by its recorded log10(KM) result.
>  <variant annotation>
G13A G41A

>  <experimental value>
3.25

$$$$
>  <variant annotation>
A39C G40C

>  <experimental value>
3.20

$$$$
>  <variant annotation>
U45G U55C

>  <experimental value>
3.37

$$$$

Batch lookup, log10(KM) per entry.
1. A15U U31A
2. A15G G37U
3. G32C U45G
4. A15U A52U
5. C11U A14G
6. A15C U56A

[3.35, 2.79, 3.47, 3.21, 3.35, 3.29]

Provenance of the data: the supplement of paper PMC7125110
